SUBJECT OF TEST: Cytochrome P450 2C9 (Homo sapiens)
Sequence (P11712 whole entry, canonical isoform): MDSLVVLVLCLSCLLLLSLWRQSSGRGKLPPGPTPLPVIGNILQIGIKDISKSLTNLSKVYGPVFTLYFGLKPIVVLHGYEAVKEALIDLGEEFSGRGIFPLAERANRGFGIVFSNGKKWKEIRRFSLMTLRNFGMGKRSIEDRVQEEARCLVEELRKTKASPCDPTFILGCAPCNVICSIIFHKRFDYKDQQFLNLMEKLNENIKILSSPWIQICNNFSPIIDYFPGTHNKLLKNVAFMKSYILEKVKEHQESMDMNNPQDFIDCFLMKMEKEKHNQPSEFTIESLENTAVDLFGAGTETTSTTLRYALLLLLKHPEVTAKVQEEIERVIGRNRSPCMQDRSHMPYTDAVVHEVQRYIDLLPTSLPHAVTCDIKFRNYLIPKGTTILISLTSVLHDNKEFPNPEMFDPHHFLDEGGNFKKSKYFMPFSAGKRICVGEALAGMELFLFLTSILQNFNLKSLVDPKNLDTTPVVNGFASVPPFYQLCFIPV
ASSAY TEXT: Inhibition of CYP2C9 in human liver microsomes using isoform-specific probe substrates in presence of NADPH-generating system by LC-MS analysis
OBSERVABLE: pIC50
The value called pIC50 is obtained by taking minus log10 of the concentration in mol/L.

Some solved cases for reference:
Cc1cc(N[C@H]2CCc3ccc(Br)cc3C2)n2nc(C(C)(F)F)nc2n1 : 5.51
Cc1cc(NC2CCc3cc(Cl)ccc3C2)n2nc(C(C)(F)F)nc2n1 (stereo not drawn) : 4.99

The record that follows has no pIC50 shown yet.
Task: Lab note: need pIC50 with Cytochrome P450 2C9 (Homo sapiens) for entry Cc1cc(NC2CCc3cc(Br)ccc3C2)n2nc(C(C)(F)F)nc2n1 (stereo not drawn) , please look it up.
Output: 5.06

====

SUBJECT OF TEST: Cytochrome P450 1A2 (Homo sapiens, UniProt P05177)
Sequence (P05177 whole entry): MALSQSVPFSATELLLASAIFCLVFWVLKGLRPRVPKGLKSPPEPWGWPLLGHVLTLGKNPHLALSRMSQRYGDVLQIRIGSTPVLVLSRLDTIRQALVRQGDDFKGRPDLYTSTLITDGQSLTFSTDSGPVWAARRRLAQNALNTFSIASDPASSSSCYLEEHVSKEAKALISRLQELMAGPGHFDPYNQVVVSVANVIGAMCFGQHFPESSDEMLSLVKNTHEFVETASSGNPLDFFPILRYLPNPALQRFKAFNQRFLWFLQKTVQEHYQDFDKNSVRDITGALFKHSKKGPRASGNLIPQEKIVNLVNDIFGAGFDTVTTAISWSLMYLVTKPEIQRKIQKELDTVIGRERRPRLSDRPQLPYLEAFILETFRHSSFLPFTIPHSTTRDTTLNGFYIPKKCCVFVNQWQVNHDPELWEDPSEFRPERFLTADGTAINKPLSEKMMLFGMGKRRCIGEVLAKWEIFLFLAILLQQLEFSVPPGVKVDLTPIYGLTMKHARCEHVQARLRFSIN
ASSAY TEXT: Inhibition of CYP1A2 in human liver microsomes using isoform-specific probe substrate in presence of NADPH-generating system by LC-MS analysis
OBSERVABLE: IC50

Worked cases, IC50 given:
Cc1cc(N[C@H]2CCc3ccc(Br)cc3C2)n2nc(C(C)(F)F)nc2n1 : > 20 µM
Cc1cc(NC2CCc3cc(Br)ccc3C2)n2nc(C(C)(F)F)nc2n1 (stereo not drawn) : > 20 µM

As a next step, examine the molecule that follows.
Task: Can you look up the measured IC50 of Cc1cc(NC2CCc3cc(Cl)ccc3C2)n2nc(C(C)(F)F)nc2n1 (stereo not drawn) for me?
Output: > 20 µM
